# Protocol Details: Pharmacokinetic study of oral and intravenous administration in rats
# Type: in vivo, rat
# Condition Details: rat, plasma, 30 mg/kg; male SD rats, oral, 30 mpk

{"Compound Smiles": "Cc1cc(NC(=O)c2noc(=O)[nH]2)cc(C)c1Cc1ccc(O)c2c1CCCC2", "bioavailability": "36%"}

###

THRα maximum agnostic capability values, listed per item
# Test Target: THRα (Homo sapiens (Human), UniProt P10827)
# Sequence (P10827 other isoform, or with tags, fused parts or gaps isoform P10827-2): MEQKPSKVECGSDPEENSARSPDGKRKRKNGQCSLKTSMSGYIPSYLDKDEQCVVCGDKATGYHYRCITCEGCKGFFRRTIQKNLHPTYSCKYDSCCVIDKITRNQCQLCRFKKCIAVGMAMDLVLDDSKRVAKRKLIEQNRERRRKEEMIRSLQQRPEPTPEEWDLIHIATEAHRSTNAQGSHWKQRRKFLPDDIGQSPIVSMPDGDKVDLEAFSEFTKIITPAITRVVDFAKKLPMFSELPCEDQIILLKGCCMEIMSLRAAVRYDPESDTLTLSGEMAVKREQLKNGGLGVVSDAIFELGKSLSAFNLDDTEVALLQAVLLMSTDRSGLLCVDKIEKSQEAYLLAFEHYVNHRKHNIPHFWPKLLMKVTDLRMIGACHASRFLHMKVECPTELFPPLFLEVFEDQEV
# Protocol Details: GeneBLAzer TR alpha-UAS-bla HEK 293T cell-based agonist assay
# Condition Details: TR alpha-UAS-bla HEK 293T cells; T3 as positive control

{"Compound Smiles": "Cc1cc(NC(=O)c2noc(=O)[nH]2)cc(C)c1Cc1cc(I)c(O)c2c1CCCC2", "THRα maximum agnostic capability, %": 85}
{"Compound Smiles": "Cc1cc(NC(=O)c2noc(=O)[nH]2)cc(C)c1Cc1ccc(O)c(Cc2ccccc2)c1", "THRα maximum agnostic capability, %": 101}
{"Compound Smiles": "Cc1cc(NC(=O)c2noc(=O)[nH]2)cc(C)c1Cc1cc(F)c(O)c2c1CCCC2", "THRα maximum agnostic capability, %": 86}
{"Compound Smiles": "Cc1cc(NC(=O)c2noc(=O)[nH]2)cc(C)c1Cc1ccc(O)c2c1CCCC2", "THRα maximum agnostic capability, %": 24}

###

# Test Target: CYP2C9 (Homo sapiens (Human), UniProt P11712)
# Sequence (P11712 whole entry): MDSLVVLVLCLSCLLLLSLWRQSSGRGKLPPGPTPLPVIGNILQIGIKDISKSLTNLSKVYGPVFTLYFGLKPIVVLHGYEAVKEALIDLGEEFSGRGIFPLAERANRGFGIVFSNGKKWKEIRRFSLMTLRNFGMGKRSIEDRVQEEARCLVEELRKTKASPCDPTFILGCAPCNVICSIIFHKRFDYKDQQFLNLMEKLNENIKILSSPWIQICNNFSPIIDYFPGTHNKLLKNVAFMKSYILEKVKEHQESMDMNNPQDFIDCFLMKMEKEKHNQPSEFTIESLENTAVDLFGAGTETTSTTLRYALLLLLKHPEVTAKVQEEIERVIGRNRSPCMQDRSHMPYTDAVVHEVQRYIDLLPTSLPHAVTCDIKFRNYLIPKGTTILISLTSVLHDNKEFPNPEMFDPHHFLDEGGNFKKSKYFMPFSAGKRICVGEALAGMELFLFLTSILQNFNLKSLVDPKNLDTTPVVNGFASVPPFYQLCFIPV
# Protocol Details: Inhibition of human liver microsomal cytochrome P450 isoenzyme CYP2C9
# Assay type: in vitro ADME
# Condition Details: human liver microsomes
pIC50: −log10 of the molar value.

{"Compound Smiles": "Cc1cc(NC(=O)c2noc(=O)[nH]2)cc(C)c1Cc1ccc(O)c2c1CCCC2", "Test Target": "CYP2C9 (Homo sapiens (Human), UniProt P11712)", "pIC50": 5.49}
